- Test system: OVCAR-8 ovarian
- protocolNotes: NCI tumour cell line growth inhibition, 48 h
observedProperty: TGI

Record summary for C[C@H]1COC2(c3ccccc3)CCC(=O)N12 (stereo partly specified) : reported TGI = > 100 µM

Record summary for Cc1cc(S(=O)(=O)Nc2nc(N)nc(N3CCOCC3)n2)c(SCC(=O)O)cc1Cl : reported TGI = > 10 µM

Record summary for CCCCCCNC(=O)Oc1ccc(/C(=C(\C)c2ccccc2)c2ccc(OCCN3CCCCC3)cc2)cc1 : reported TGI = 5.94 µM

Record summary for COc1ccc(C2SC(N)=Nc3c2c(C)nn3C(=O)c2ccc(Cl)cc2)cc1 (stereo unspecified) : reported TGI = > 10 µM

Record summary for C=CCNC(=O)/C(Cc1cc(Br)c(OC)c(Br)c1O)=N\O : reported TGI = 20.9 µM

Record summary for CCCCSCc1nc2nc(Cl)c(Cl)nc2[nH]1 : reported TGI = > 100 µM

Record summary for CN(C)CCCSc1c2ccccc2nc2cc(NCC(=O)Nc3ccccc3-c3ccccc3NC(=O)CNc3ccc4c(SCCCN(C)C)c5ccccc5nc4c3)ccc12 : reported TGI = > 100 µM

Record summary for CN1CCN(Cc2ccc(NC(=O)c3[nH]ncc3Nc3ncnc4sccc34)cc2)CC1 : reported TGI = > 100 µM

Record summary for CC1(C)OC(=O)C(C)(C)OC1=O : reported TGI = > 100 µM

Record summary for Cc1cccc2c1Oc1cc(Cl)ccc1C2NC(=O)CN(C)C (stereo unspecified) : reported TGI = > 100 µM

Record summary for CCOC(=O)C1=C(O)c2ccccc2C(=O)C1=O : reported TGI = > 100 µM

Record summary for C[C@]12CC(c3ccccc3O1)C(C#N)C(=O)N2 (stereo partly specified) : reported TGI = > 100 µM

Record summary for CN(C)CCNC(=O)c1cccc2nc3c4ccccc4c4ccccc4c3nc12 : reported TGI = 7.76 µM

Record summary for NC(=O)C12C3C4C1C1C2C3C41C(N)=O (stereo unspecified) : reported TGI = > 100 µM

Record summary for NC1=CC(C(=O)c2ccncc2)c2nc3ccccc3nc21 (stereo unspecified) : reported TGI = > 100 µM

Record summary for COc1ccc(CNc2nc(NCc3ccc(OC)cc3)nc(NC(C)C)n2)cc1 : reported TGI = 33.6 µM

Record summary for Cc1ccc(S(=O)(=O)NC(=O)NCC(=O)NCC(=O)O)cc1 : reported TGI = > 100 µM

Record summary for COC1C=C(NCC2(CO)CCC2)NC(N)=N1 (stereo unspecified) : reported TGI = > 100 µM

Record summary for NCS(=O)(=O)O : reported TGI = > 100 µM

Record summary for COC(=O)c1c2c(c(C)[n+]([O-])c1C)C(=O)C(NCc1cccc(OC)c1)=CC2=O : reported TGI = 10.3 µM

Record summary for O=C1C(Cl)C(c2ccc(Cl)cc2)N1n1cnc2ccccc2c1=O (stereo unspecified) : reported TGI = > 100 µM

Record summary for O=C1OC(c2ccccc2)=N/C1=C\c1c(O)cc(O)cc1O : reported TGI = > 100 µM

Record summary for O=C(N=Nc1c(O)[nH]c2c(Cl)cc(Cl)cc12)c1ccncc1 : reported TGI = 67.8 µM

Record summary for NC(N)=N/N=C/c1cccc(Cl)c1Cl : reported TGI = 25.8 µM

Record summary for OCCSCc1cc2c(O)c(c1)Cc1cc(CSCCO)cc(c1O)Cc1cc(CSCCO)cc(c1O)Cc1cc(CSCCO)cc(c1O)C2 : reported TGI = 17.6 µM

Record summary for CCN(CC)Cc1ccc2cccnc2c1O : reported TGI = 7.01 µM

Record summary for COc1ccc(C2CC(=O)Oc3ccccc3O2)cc1 (stereo unspecified) : reported TGI = > 100 µM

Record summary for Cc1[nH]c(=O)nc(CC(O)(c2ccccc2)c2ccccc2)c1-c1ccccc1 : reported TGI = > 100 µM

Record summary for CC(=O)NCC1(c2ccccc2)CCN(CC2COc3ccccc3O2)CC1 (stereo unspecified) : reported TGI = > 100 µM

Record summary for O=C(c1ccco1)c1c(C(F)(F)F)nc2cc(C(F)(F)F)ccc2[n+]1[O-] : reported TGI = > 100 µM

Record summary for CCC(CC)C(=O)OC[n+]1cccc(-c2c(COC(=O)NC(C)C)c(COC(=O)NC(C)C)c3n2CCC3)c1 : reported TGI = > 100 µM

Record summary for Cc1c2ccnc(-c3ccccc3)c2cc2c1[nH]c1ccccc12 : reported TGI = 7 µM

Record summary for COc1cc(/C=C2/SC(c3ccccc3)N(c3ccc(Cl)cc3)C2=O)cc(OC)c1OC (stereo unspecified) : reported TGI = > 100 µM

Record summary for CCCC(=O)NC(c1ccc2c(c1)OCO2)c1ccc2cccnc2c1O (stereo unspecified) : reported TGI = > 100 µM

Record summary for CS(=O)c1ccc(-c2nc(-c3ccc(F)cc3)c(-c3ccncc3)[nH]2)cc1 (stereo unspecified) : reported TGI = > 100 µM

Record summary for Oc1cc(O)cc(/C=C/c2ccc(O)c(O)c2)c1 : reported TGI = > 100 µM

Record summary for CC(=O)O[C@H]1C(=O)[C@@]2(C)[C@H]([C@H](OC(=O)c3ccc([N+](=O)[O-])cc3)[C@]3(O)C[C@H](OC(=O)[C@H](O)[C@@H](NC(=O)c4ccccc4)c4ccccc4)C(C)=C1C3(C)C)[C@]1(OC(C)=O)CO[C@@H]1C[C@@H]2O : reported TGI = > 25 µM

Record summary for COc1cc(-c2nc(SCC(=O)Nc3ccc(C(C)=O)cc3)[nH]c(=O)c2C#N)cc(OC)c1OC : reported TGI = > 100 µM

Record summary for CCOC(=O)c1c(C)n(CC(C)C)c2c1cc1oc(=O)c(=O)n3cnc2c13 : reported TGI = 36.7 µM

Record summary for Cn1c(=O)c2c(nc(C[N+]3([O-])CCOCC3)n2C)n(C)c1=O : reported TGI = > 100 µM

Record summary for COc1ccc(/C=C2\N=C(c3ccccc3)N(Nc3nnc(NN4C(=O)/C(=C/c5ccc(OC)cc5)N=C4c4ccccc4)c4ccccc34)C2=O)cc1 : reported TGI = > 100 µM

---

Consider the following compounds; for each one, report its TGI.
- Tested on: HOP-62 NSCLC
- protocolNotes: NCI tumour cell line growth inhibition, 48 h

Record summary for CCCCOP(=O)(OCCCC)/C(C#N)=C/c1ccco1 : reported TGI = > 100 µM

Record summary for Cc1ccc(S(=O)(=O)NC(=O)NCC(=O)NCC(=O)O)cc1 : reported TGI = > 100 µM

Record summary for COc1ccccc1CNC(=O)C1c2ccccc2C(=O)N(CC(C)C)C1c1cccs1 (stereo unspecified) : reported TGI = > 100 µM

Record summary for CO/C(=N\N=C\c1ccc(OC)cc1OC)c1ccncc1 : reported TGI = > 10 µM

Record summary for Cc1ccc(C)c(/C(=N\N=C(N)N)C2CC2)c1 : reported TGI = > 100 µM

Record summary for CN(C)c1nc(N(C)C)n2nc(-c3ccccc3[N+](=O)[O-])nc2n1 : reported TGI = > 100 µM

Record summary for CCCCCCNC(=O)Oc1ccc(/C(=C(\C)c2ccccc2)c2ccc(OCCN3CCCCC3)cc2)cc1 : reported TGI = 10.9 µM

Record summary for Oc1ccc(Br)cc1/C=N/NC(=S)NC12CC3CC(CC(C3)C1)C2 : reported TGI = 3.32 µM

Record summary for Nc1nc(N)nc(-c2cnccn2)n1 : reported TGI = > 100 µM

Record summary for CCOC(=O)N1c2ccccc2S(=O)(=O)c2ccccc21 : reported TGI = > 100 µM

Record summary for COc1cccc(-c2cccc(SC)n2)n1 : reported TGI = > 100 µM

Record summary for C/C(=N\NS(=O)(=O)c1ccc(C)cc1)C(CN(C)C)C(c1ccccc1)c1c(O)c2ccccc2oc1=O (stereo unspecified) : reported TGI = > 100 µM

Record summary for O=C1NC(=O)C2(CCC(O)C2)c2cc[n+]([O-])cc21 (stereo unspecified) : reported TGI = > 100 µM

Record summary for C[C@H]1CCC/C=C/[C@@H]2C[C@H](O)C[C@H]2[C@H](O)[C@@H](S(=O)CCN)CC(=O)O1 (stereo partly specified) : reported TGI = > 58.9 µM

Record summary for COC(=O)[C@@H](Cc1c[nH]c2ccccc12)NC(=O)/C=C/c1ccccc1 : reported TGI = > 100 µM

Record summary for NC(=O)c1csc(CCCCCCc2nc(C(N)=O)cs2)n1 : reported TGI = > 100 µM

Record summary for CC1(C)CCCCCCCCCC(C)(CCCO)C1=O (stereo unspecified) : reported TGI = 30.3 µM

Record summary for CN(C)CCOc1nc2c3cccnc3cc(-c3cccc(Cl)c3)c2c2ncccc12 : reported TGI = 3.26 µM

Record summary for CC(C)CC(CNC(Cc1ccc(Cl)cc1)C(N)=O)NC(=O)C(Cc1cnc[nH]1)NC(=O)CNC(=O)C(NC(=O)C(C)NC(=O)C(Cc1c[nH]c2ccccc12)NC(=O)C(CCC(=O)O)NC(=O)C(N)Cc1ccccc1)C(C)C (stereo unspecified) : reported TGI = > 133 µM

Record summary for COc1ccc(CNc2nc(NCc3ccc(OC)cc3)nc(NC(C)C)n2)cc1 : reported TGI = 37.5 µM

Record summary for c1ccc2c[n+](CCCCCCCCCC[n+]3ccc4ccccc4c3)ccc2c1 : reported TGI = > 10 µM

Measured values drawn from PubChem BioAssay (NCI) for this set.
